Source listed as paper PMC7811981.

Format: in vivo, healthy adults (human)
Conditions: human, plasma, po, 300 mg
QUANTITY NAME: half-life (h)
Use h as the unit, but write only the number.

Fill blank: measured half-life of the molecule CN(C)c1cc(CNCC(C)(C)C)c(O)c2c1C[C@H]1C[C@H]3[C@H](N(C)C)C(O)=C(C(N)=O)C(=O)[C@@]3(O)C(O)=C1C2=O is ____. 12.7

* * *

Format: in vivo, healthy adults (human)
Details: human, plasma, po, 300 mg
QUANTITY NAME: Cmax (ng/mL)
Entry rule: numbers only, all in ng/mL.

Tell me the measured Cmax of CN(C)c1cc(CNCC(C)(C)C)c(O)c2c1C[C@H]1C[C@H]3[C@H](N(C)C)C(O)=C(C(N)=O)C(=O)[C@@]3(O)C(O)=C1C2=O , please. 534
